// data source = paper PMC12547551

- System: Plasmodium falciparum K1
- experimental-details: Antiplasmodial assay, microculture radioisotope technique
- Format: cell-based
- experimental-context: P. falciparum K1, standard drug
readout: pIC50
Give only the number. pIC50 is defined as minus log10 of concentration in molar units.

## Input Quick one: pIC50 for C[C@H]1[C@@H](O)O[C@@H]2O[C@@]3(C)CC[C@H]4[C@H](C)CC[C@@H]1[C@@]24OO3 [Dihydroartemisinin] ?
## Output 8.85

## Input Proceed to CCN(CC)CCCC(C)Nc1ccnc2cc(Cl)ccc12 (centres unmarked) [chloroquine]
## Output 6.24
